TGT: Serine/threonine-protein kinase haspin (Homo sapiens) (UniProt Q8TF76)
Sequence (Q8TF76 whole entry): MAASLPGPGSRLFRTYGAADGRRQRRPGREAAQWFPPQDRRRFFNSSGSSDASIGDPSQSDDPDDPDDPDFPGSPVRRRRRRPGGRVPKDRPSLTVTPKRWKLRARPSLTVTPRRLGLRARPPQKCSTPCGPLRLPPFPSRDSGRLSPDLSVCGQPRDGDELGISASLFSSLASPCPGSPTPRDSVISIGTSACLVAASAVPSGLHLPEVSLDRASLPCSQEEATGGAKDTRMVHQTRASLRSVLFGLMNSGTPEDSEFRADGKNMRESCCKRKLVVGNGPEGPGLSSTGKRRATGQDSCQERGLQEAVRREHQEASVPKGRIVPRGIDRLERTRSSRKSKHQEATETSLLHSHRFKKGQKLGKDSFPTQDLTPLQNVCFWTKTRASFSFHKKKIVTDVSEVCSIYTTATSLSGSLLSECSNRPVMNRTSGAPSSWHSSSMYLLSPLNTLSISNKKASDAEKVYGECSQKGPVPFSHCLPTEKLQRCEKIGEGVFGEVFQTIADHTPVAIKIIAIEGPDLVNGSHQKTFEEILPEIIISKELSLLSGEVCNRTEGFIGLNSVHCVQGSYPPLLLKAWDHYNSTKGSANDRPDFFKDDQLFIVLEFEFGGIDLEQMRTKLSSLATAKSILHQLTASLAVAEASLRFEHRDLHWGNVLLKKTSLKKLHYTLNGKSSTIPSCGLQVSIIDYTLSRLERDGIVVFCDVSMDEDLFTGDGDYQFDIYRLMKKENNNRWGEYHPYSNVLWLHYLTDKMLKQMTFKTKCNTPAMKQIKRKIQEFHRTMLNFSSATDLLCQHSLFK
MEASUREMENT SETUP: at 10 µM
Class YES: residual activity at least 60%. Class NO: residual activity below 60%.

- CCOc1cc2ncnc(Nc3cccc(Br)c3)c2cc1OCC: YES
- c1ccc(-c2n[nH]c3c2oc2ccccc23)cc1: NO
- CO[C@@H]1[C@H](N(C)C(=O)c2ccccc2)C[C@H]2O[C@]1(C)n1c3ccccc3c3c4c(c5c6ccccc6n2c5c31)C(=O)NC4: NO
- Oc1c2ccccc2c2c3c(cccc13)N=N2: NO
- C[C@@H](N)[C@H]1CC[C@H](C(=O)Nc2ccncc2)CC1: YES
- O=C(O)c1ccc2c3c1cccc3c(=O)n1c3ccccc3nc21: YES
- Cc1nc(-c2ccccc2)c(-c2ccncc2)o1: NO
- COc1cc2ncnc(Nc3ccc(O)c(Br)c3)c2cc1OC: NO
- CC(C)n1cnc2c(NCc3ccccc3)nc(NCCCO)nc21: YES
- Cc1cc(Nc2nc(-c3ccccc3)nc3ccccc23)n[nH]1: YES
- O=C1c2ccccc2-[n+]2ccc3c([nH]c4ccccc43)c21: YES
- O=c1c2ccccc2[nH]c(=S)n1CCN1CCC(=C(c2ccc(F)cc2)c2ccc(F)cc2)CC1: NO
- CO[C@H]1[C@@H](OC)C[C@H](C)[C@@H](OC)C2=CC(=O)C=C(NC(=O)/C(C)=C/C=C/[C@H](OC)[C@@H](OC(N)=O)/C(C)=C/[C@@H]1C)C2=O: YES
- O=C1Nc2ccccc2/C1=C1/Nc2ccccc2/C1=N\OCCC(O)CO (configuration not stated): NO
- O=C(Nc1cccc(Nc2nccc(Nc3cccc(C(F)(F)F)c3)n2)c1)C1CC1: NO
- COc1cc2ncc(-c3ccccc3)nc2cc1OC: YES
- COc1ccc(CNc2nc(N(CCO)CCO)nc3c2ncn3C(C)C)cc1: YES
- NC(=O)c1ccc2[nH]c(-c3ccc(Oc4ccc(Cl)cc4)cc3)nc2c1: YES
- N#Cc1cnc2cnc(NCc3cccnc3)cc2c1Nc1ccc(F)c(Cl)c1: YES
- Nc1ccc2ncnc(NCCc3ccc(Oc4ccccc4)cc3)c2c1: NO

* * *

Items are presented alongside their recorded residual activity.
TGT: MAP kinase-interacting serine/threonine-protein kinase 2 (Homo sapiens)
MEASUREMENT SETUP: at 10 µM
OBSERVATION TYPE: residual activity (%)

• Cc1cncc2cccc(S(=O)(=O)N3CCCN(C(=O)CN)C[C@H]3C)c12 = 72
• CO[C@H]1[C@@H](OC)C[C@H](C)[C@@H](OC)C2=CC(=O)C=C(NC(=O)/C(C)=C/C=C/[C@H](OC)[C@@H](OC(N)=O)/C(C)=C/[C@@H]1C)C2=O = 107
• Oc1ccc(Nc2nc(-c3ccc(Cl)cc3)cs2)cc1 = 80
• O=Nc1c(-c2c(O)[nH]c3ccccc23)[nH]c2ccccc12 = 18
• CCOc1cc2ncnc(Nc3cccc(Br)c3)c2cc1OCC = 7
• CN(C)c1ccc(/C=C2\C(=O)Nc3ccccc32)cc1 = 95
• Cc1cc(Nc2nc(-c3ccccc3)nc3ccccc23)n[nH]1 = 61
• Nc1n[nH]c2nnc(-c3c(-c4ccccc4)nn4ccccc34)cc12 = 101
• CC(C)n1cnc2/c(=N/c3cccc(Cl)c3)nc(NCCO)[nH]c21 = 77
• O=C(Nc1cccc(Nc2nccc(Nc3cccc(C(F)(F)F)c3)n2)c1)C1CC1 = 77
• O=C1Nc2cc(Br)ccc2/C1=C1/Nc2ccccc2/C1=N\O = 77
• O=c1cc(-c2cccc3c2Sc2ccccc2S3)oc(N2CCOCC2)c1 = 94
• O=C1Nc2ccccc2/C1=C1/Nc2ccccc2/C1=N\OCCC(O)CO (configuration not stated) = 44
• c1ccc(-c2n[nH]c3c2oc2ccccc23)cc1 = 24
• O=[N+]([O-])c1ccc(-c2nc(-c3ccc(F)cc3)c(-c3ccncc3)[nH]2)cc1 = 106
• N#C/C(=C(\N)Sc1ccc(N)cc1)c1ccccc1C(F)(F)F = 106
• N#Cc1cnc2cnc(NCc3cccnc3)cc2c1Nc1ccc(F)c(Cl)c1 = 79
• CC[n+]1c(/C=C/N(C)c2ccccc2)n(-c2ccccc2)c2ccc(-c3nc4ccccc4s3)cc21 = 63
• c1ccc(-c2n[nH]cc2-c2ccnc3ccccc23)nc1 = 98
• N#CC(C#N)=C(N)/C(C#N)=C/c1ccc(O)cc1 = 50
• Cc1ccc(S(=O)(=O)/C=C/C#N)cc1 = 101
• Nc1nc(Nc2ccc(S(N)(=O)=O)cc2)nn1C(=S)Nc1c(F)cccc1F = 14
